In this section, each of the compounds is paired with its reported activation.
Molecular target: Trace amine-associated receptor 1 (Homo sapiens) (UniProt Q96RJ0)
Sequence (Q96RJ0 whole entry, looked up): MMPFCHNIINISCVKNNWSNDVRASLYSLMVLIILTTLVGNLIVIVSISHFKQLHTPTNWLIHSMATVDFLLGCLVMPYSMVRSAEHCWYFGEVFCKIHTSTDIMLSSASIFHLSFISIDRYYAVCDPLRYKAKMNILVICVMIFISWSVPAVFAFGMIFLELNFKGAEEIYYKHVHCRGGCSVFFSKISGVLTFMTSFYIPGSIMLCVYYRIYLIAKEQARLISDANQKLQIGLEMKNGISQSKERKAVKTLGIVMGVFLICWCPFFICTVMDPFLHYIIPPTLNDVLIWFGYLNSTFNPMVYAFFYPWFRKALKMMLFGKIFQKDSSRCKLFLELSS
Experiment: activators of TAAR1 calcium mobilization – Fluo-8 calcium fluorescence, CHO RD-HGA16 cells, primary screen (AID 624467)
Settings: CHO RD-HGA16 TAAR1, Fluo-8 calcium fluorescence; at 3 µM; stronger effect = higher value; vehicle wells 0%, saturating PEA agonist 100%
Screen size: about 360,000 compounds; about 3,600 (1%) were called active. The list comes from a sample in which actives are over-represented; it also holds close analogues and randomly drawn compounds.

compound: COC(=O)Cc1nnn2c1[C@H](C)[C@@H](OC)c1cc(Br)ccc1-2
activation [%]: 0.26

compound: O=C(NCCOc1ccccc1F)Nc1ccc(Br)cc1
activation [%]: 12

compound: COc1ccc(N(C(=O)CNC(=O)c2ccco2)C(C(=O)NCC2CCCO2)c2ccccc2)cc1Cl (stereo not given)
activation [%]: 14

compound: OC(c1ccccc1)(c1ccccc1)C1CCN(CCCOc2ccccc2)CC1
activation [%]: 23.6

compound: O=C(Nc1nnc(COc2ccccc2)s1)Nc1ccccc1F
activation [%]: -0.19

compound: CCOC(=O)CC1(NC(=O)c2cc(COc3cncc(Cl)c3)on2)CCCCC1
activation [%]: 4.12

compound: COC(=O)C1=C(C)N(Cc2ccc(C(F)(F)F)cc2)C(=NCc2ccc(C(F)(F)F)cc2)NC1c1cccc(Cl)c1 (stereo not given)
activation [%]: 16.8

compound: O=C(COC(=O)c1cccc(Cl)c1)NC(=O)NCc1ccccc1
activation [%]: 2.7

compound: O=C(COC(=O)CCc1c[nH]c2ccccc12)Nc1cccc(Cl)c1
activation [%]: 3.56

compound: N#CCSc1ccccc1NC(=O)CN1C(=O)NC(CCc2ccccc2)C1=O (stereo not given)
activation [%]: 4.54

====

# activation per record follows
Target: Trace amine-associated receptor 1 (Homo sapiens)
Assay: activators of TAAR1 calcium mobilization – Fluo-8 calcium fluorescence, CHO RD-HGA16 cells, primary screen (AID 624467)
Settings: CHO RD-HGA16 TAAR1, Fluo-8 calcium fluorescence; at 3 µM; stronger effect = higher value; vehicle wells 0%, saturating PEA agonist 100%
The whole screen tested about 360,000 compounds, of which about 3,600 (1%) were called active. This is one part of a sample in which actives are shown more often than they occur.

compound: CCN(CC)Cc1nc2sc(C)c(C)c2c(=O)[nH]1
test.system: Trace amine-associated receptor 1 (Homo sapiens)
unit.descriptor: %
activation: 7.06
//
compound: COc1ccc2c(c1)CCc1c(C(=O)N3CCc4ccccc4C3)noc1-2
test.system: Trace amine-associated receptor 1 (Homo sapiens)
unit.descriptor: %
activation: 13.8
//
compound: COc1cc(NS(=O)(=O)c2ccc(NC(=S)NC(=O)c3ccccc3)cc2)nc(OC)n1
test.system: Trace amine-associated receptor 1 (Homo sapiens)
unit.descriptor: %
activation: -5.7
//
compound: O=C(Nc1ccncc1)Nc1ccc(F)cc1
test.system: Trace amine-associated receptor 1 (Homo sapiens)
unit.descriptor: %
activation: 78.9
//
compound: O=C(NCC(c1ccco1)N1CCc2ccccc2C1)c1ccccc1Cl (stereo unspecified)
test.system: Trace amine-associated receptor 1 (Homo sapiens)
unit.descriptor: %
activation: 12.4
//
compound: CC(=O)Nc1ccc(SC[C@H](Cc2ccccc2)N2CC[C@@H](C)CCC2=O)cc1
test.system: Trace amine-associated receptor 1 (Homo sapiens)
unit.descriptor: %
activation: 9.24
//
compound: CC(C)(C)OC(=O)N1CCN(C(=O)c2[nH]c(C(F)(F)F)nc2-c2ccccc2)CC1
test.system: Trace amine-associated receptor 1 (Homo sapiens)
unit.descriptor: %
activation: 1.1
//
compound: NC(=O)COc1ccc(/C=N/NC(=O)C2CCCN2S(=O)(=O)c2ccc(Cl)cc2)cc1 (stereo unspecified)
test.system: Trace amine-associated receptor 1 (Homo sapiens)
unit.descriptor: %
activation: 5.15
//
compound: O=S(=O)(c1ccc(Br)c2ccccc12)N1CCOCC1
test.system: Trace amine-associated receptor 1 (Homo sapiens)
unit.descriptor: %
activation: 3.96
//
compound: CCN(CC)C(=O)CS(=O)CC(=O)Nc1cc(OCCOC)c(Cl)cc1Cl (stereo unspecified)
test.system: Trace amine-associated receptor 1 (Homo sapiens)
unit.descriptor: %
activation: 5.84
//
compound: CCCOc1ccc(N2C(=O)CC(N(CCc3ccc(S(N)(=O)=O)cc3)C(C)=O)C2=O)cc1 (stereo unspecified)
test.system: Trace amine-associated receptor 1 (Homo sapiens)
unit.descriptor: %
activation: 1.5
//
compound: C[C@H](O)[C@@H]1C(=O)N2CCc3c([nH]c4c(-c5ccc6c(c5)OCO6)cccc34)[C@@H]2C[C@@H]1N(C)C(=O)c1ccco1
test.system: Trace amine-associated receptor 1 (Homo sapiens)
unit.descriptor: %
activation: 14.6
//
compound: COc1ccc(Cl)cc1C(=O)NNC(=O)c1nc2nc(C)cc(C)n2n1
test.system: Trace amine-associated receptor 1 (Homo sapiens)
unit.descriptor: %
activation: -0.4
//
compound: CCOC(CNC(=O)C(=O)NCC(c1ccco1)N1CCN(c2ccc(OC)cc2)CC1)OCC (stereo unspecified)
test.system: Trace amine-associated receptor 1 (Homo sapiens)
unit.descriptor: %
activation: 3.05
//
compound: O=C(Nc1ccc(Cl)cc1)Nc1ccc(Oc2cccnc2)nc1
test.system: Trace amine-associated receptor 1 (Homo sapiens)
unit.descriptor: %
activation: 35.4
//
compound: CCCCn1c(-c2cccc(C)c2)nc2cc3[nH]c(=O)c(C(C)C)nc3cc21
test.system: Trace amine-associated receptor 1 (Homo sapiens)
unit.descriptor: %
activation: 14.7
//
compound: CC(C)(C)NC(=O)NC(=O)COC(=O)Cc1ccc(Cl)cc1Cl
test.system: Trace amine-associated receptor 1 (Homo sapiens)
unit.descriptor: %
activation: -2.34
//
compound: O=C(c1cc(-c2cccc(O)c2)on1)N1CCc2ccccc2C1
test.system: Trace amine-associated receptor 1 (Homo sapiens)
unit.descriptor: %
activation: 31.8
//
compound: COc1ccc(OC)c(C(C)NC(=S)Nc2ccc(S(=O)(=O)Nc3ncccn3)cc2)c1 (stereo unspecified)
test.system: Trace amine-associated receptor 1 (Homo sapiens)
unit.descriptor: %
activation: 1.66
//
compound: COc1ccc(Cl)cc1C(=O)NNC(=S)NC(=O)/C=C/c1ccco1
test.system: Trace amine-associated receptor 1 (Homo sapiens)
unit.descriptor: %
activation: 55.3
//
compound: COc1ccc(NC(=O)C(=O)NCC(c2ccco2)N2CCc3ccccc3C2)cc1 (stereo unspecified)
test.system: Trace amine-associated receptor 1 (Homo sapiens)
unit.descriptor: %
activation: 62.3

====

Biological target: Trace amine-associated receptor 1 (Homo sapiens)
Assay: activators of TAAR1 calcium mobilization – Fluo-8 calcium fluorescence, CHO RD-HGA16 cells, primary screen (AID 624467)
Conditions: CHO RD-HGA16 TAAR1, Fluo-8 calcium fluorescence; at 3 µM; vehicle wells 0%, saturating PEA agonist 100%
Among all 360,000 compounds or so, about 3,600 (1%) were called active.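 How the source made its calls: active means activation above the mean activation of all test compounds in the run plus 3 SD (cut at about 38% in these data); inactive means the rest.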 Shown is part of a subset that was picked to be rich in actives.
Outcome codes: label 1 for active, label 0 for inactive

molecule: Oc1ccccc1CNc1ncc(Br)cc1Br
group: label 0
//
molecule: Cc1ccccc1-c1nc(CS(=O)(=O)CC(=O)N2CCc3ccccc3C2)c(C)o1
group: label 1
//
molecule: c1ccc2c(CCN3CCNC[C@H]3Cc3cccc4ccccc34)cccc2c1
group: label 0
//
molecule: CC1CCc2sc(C(=O)N/N=C/C3CCCCC3)cc2C1 (configuration not stated)
group: label 0
//
molecule: O=C(CCNC(=O)Cn1ccc2ccccc2c1=O)NCCC1=CCCCC1
group: label 0
//
molecule: Cc1ccnc(NC(=O)C(C)N2C(=O)c3ccccc3C2=O)c1 (configuration not stated)
group: label 0
//
molecule: COc1ccc(CCN(C)C(=O)C23CC4CC(CC(Cl)(C4)C2)C3)cc1OC
group: label 0
//
molecule: CCCCCCCCCCOC(=O)Cn1c(COc2ccc(C)cc2)[n+](C)c2ccccc21
group: label 1
//
molecule: COC(=O)C1=C(C)N(Cc2ccccc2C(F)(F)F)C(=NCC2CC2)NC1c1cccc(Cl)c1 (configuration not stated)
group: label 0
//
molecule: Cc1noc(C)c1COC(=O)Cn1c(C)nc2ccccc21
group: label 0
//
molecule: Nc1c(C(=O)c2cccs2)sc2nsc(SCCN3CCCCC3)c12
group: label 1
//
molecule: COCCNC(=S)N(C)[C@H]1C[C@H]2c3[nH]c4ccccc4c3CCN2C[C@H]1[C@H](C)O
group: label 0
//
molecule: C=CCOC(=O)C1=C[C@H](c2ccc(Br)cc2)C[C@H](OCCCCO)O1
group: label 0
//
molecule: COc1ccc2cc(-c3[nH]ncc3CNCCn3nc(C)cc3C)ccc2c1
group: label 1
//
molecule: CC1(C)OC(=O)C2=C(CC(CCc3ccccc3)OC2c2ccc(Cl)cc2)O1 (configuration not stated)
group: label 0
//
molecule: COc1ccc(CNCCCn2cnc3c(OCc4ccccc4)ncnc32)cc1
group: label 0
//
molecule: NC(c1csc(NC(=O)Nc2ccccc2Oc2ccccc2)n1)c1ccccc1Cl (configuration not stated)
group: label 0
//
molecule: COC(=O)[C@]12C[C@H](CC(=O)NCc3ccc(C)o3)C(=O)N(CCC3=CCCCC3)C1=C[C@H](C(C)(C)C)O[C@@H]2C
group: label 0
//
molecule: COc1ccc(CCNCc2c(-c3ccccc3)n(C)c3ccccc23)cc1
group: label 1
//
molecule: C=CCN1C(=NC(=O)COc2ccccc2)SC2CS(=O)(=O)CC21 (configuration not stated)
group: label 0
//
molecule: COc1cccc(CNc2nc(NCc3ccccc3OC)nc3ccsc23)c1
group: label 0
//
molecule: Cc1ccc(NC(=O)CN2CCc3ccccc3C2)cc1C
group: label 0
//
molecule: COc1ccc(C(CNC(=O)c2ccc(NS(=O)(=O)c3ccc(F)c(C)c3)cc2)N(C)C)cc1 (configuration not stated)
group: label 0
//
molecule: C[C@H]1[C@H](c2ccccc2)Oc2cc(Br)ccc2S(=O)(=O)N1Cc1cccc(F)c1
group: label 0
//
molecule: CCCCCCCCN1C(=O)[C@@H](CC(=O)NCc2ccccc2)C[C@@]2(C(=O)OC)C1=C[C@H](C(C)(C)C)O[C@@H]2C
group: label 0
//
molecule: CCOC(=O)c1csc(NC(=O)Nc2cccc(OC)c2)n1
group: label 0
//
molecule: COc1cc(OC)c(-n2cc(-c3ccc(Cl)cc3)[nH]c2=O)cc1Cl
group: label 1
//
molecule: O=S(=O)(c1cccs1)N1CCCc2nc(-c3ccc(Br)cc3)ccc21
group: label 0
//
molecule: COc1ccc(-n2c(-c3ccc(Cl)cc3)n[nH]c2=S)c(OC)c1
group: label 0
//
molecule: O=P(O)(CP(=O)(c1ccccc1)c1ccccc1)c1ccccc1
group: label 0
//
molecule: CN1C(=O)c2cccc3c(N)ccc(c23)C1=O
group: label 1
//
molecule: COc1cc(OC)c(N2CC(C(=O)Nc3cc(Cl)ccc3N3CCOCC3)CC2=O)cc1Cl (configuration not stated)
group: label 0
//
molecule: Cc1ccn2c(=O)c(C(=O)NCCC3=CCCCC3)c(O)nc2c1
group: label 1
//
molecule: c1ccc(C2CNCc3c2ccc2ccccc32)cc1 (configuration not stated)
group: label 1
//
molecule: CC(C)CNc1cccc2c1S(=O)(=O)N[C@H](CC(C)C)CO2
group: label 0
//
molecule: CC(C)(C)C(c1nc2ccccc2[nH]1)n1c(Cc2csc3ccccc23)nc2ccccc21 (configuration not stated)
group: label 0
//
molecule: CCOc1ccc(OCCSc2nc3ccccc3n2CC(=O)O)cc1
group: label 0
//
molecule: COC(=O)[C@]12C[C@H](CC(=O)N3CCN(C(=O)C4CC4)CC3)C(=O)N(Cc3ccc4c(c3)OCO4)C1=C[C@H](C(C)(C)C)O[C@@H]2C
group: label 0
//
molecule: CCCCSc1nc2c(c(=O)n1CC)SC(C)C2 (configuration not stated)
group: label 0
//
molecule: Cc1ccc(NC(=O)CCN2CCc3ccccc3C2)cc1
group: label 1
//
molecule: Cc1cc(C)n(CCNS(=O)(=O)c2ccc(Cl)cc2)n1
group: label 0
//
molecule: COC(=O)[C@]1(Cc2ccccc2)NC=C(C(=O)c2ccccc2)[C@@H]1c1cccc(OC)c1
group: label 0
